# System: YANK1
# Construct: gene STK32A
# condition-info: concentration: 1 μM, replicates: in singlicate; n = 1;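 note: KINOMEscan kinase panel screen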
measured-quantity: %Inh (%)
Provide only the numeric value, understood in %.

Known %Inh results, listed for orientation:
chemical-structure: Cc1nnc(-c2ccc(C)c(-c3ccc(C(=O)Nc4ccc(NS(C)(=O)=O)cc4)cc3)c2)o1
assay-target: YANK1
unit-info: %
%Inh: 6
--
chemical-structure: NS(=O)(=O)c1cccc(-c2ccc3ncc(N4CCOCC4)nc3c2)c1
assay-target: YANK1
unit-info: %
%Inh: 2
--
chemical-structure: N#Cc1ccc(-c2cc(-c3c[nH]nc3-c3ccccn3)ccn2)cc1
assay-target: YANK1
unit-info: %
%Inh: 15
--
chemical-structure: N#Cc1c(N2CCOCC2)sc(-c2ccn[nH]2)c1-c1ccc(Cl)cc1
assay-target: YANK1
unit-info: %
%Inh: 0

What value of measured %Inh is listed for "COc1ccc(Nc2ncc(C#N)c(Nc3ccccc3C(N)=O)n2)cc1N1CCN(C)CC1.Cl" ?
93.5

---

# System: AMPK-alpha1
# Construct: gene PRKAA1
# condition-info: concentration: 1 μM, replicates: in singlicate; n = 1
%Inh strictly less than 1% = Fulfilled. Otherwise Not fulfilled.

molecule: O=C(NCCNc1ccnc(Nc2ccc(F)cc2)n1)Nc1ccccc1F
assay-target: AMPK-alpha1
cat: Fulfilled
//
molecule: COc1ccc(Nc2nccc(N3CCC(NC(=O)Nc4cccc(C(C)=O)c4)C3)n2)cc1 (stereo not shown)
assay-target: AMPK-alpha1
cat: Fulfilled
//
molecule: O=c1cc(N2CCOCC2)nc2n(Cc3cccc(F)c3)ccn12
assay-target: AMPK-alpha1
cat: Not fulfilled
//
molecule: Cc1cccc(-c2nc(Nc3ccc4ncsc4c3)c3ccccc3n2)n1
assay-target: AMPK-alpha1
cat: Not fulfilled
//
molecule: COc1ccc(S(=O)(=O)NC2CCN(c3cc(C)nc(Nc4cccc(C#N)c4)n3)CC2)cc1.O=C(O)C(F)(F)F
assay-target: AMPK-alpha1
cat: Fulfilled

Quick check: %Inh of "O=C(NOCC1CC1)c1ccc(F)c(F)c1Nc1ccc(I)cc1Cl" under 1%?
Fulfilled

Quick check: %Inh of "CN1c2ccc(NCc3ccc(F)cc3)cc2-c2c(cnn2C)S1(=O)=O" under 1%?
Fulfilled

Quick check: %Inh of "Cc1cn2c(=O)cc(N3CCOCC3)nc2n1Cc1cccc(Cl)c1Cl" under 1%?
Not fulfilled

---

# System: WNK1
# condition-info: concentration: 1 μM, replicates: in singlicate; n = 1
measured-quantity: %Inh (%)
Provide only the numeric value, understood in %.

chemical-structure: Cc1cccc(-c2nc(Nc3ccc4ncsc4c3)c3ccccc3n2)n1
%Inh / %: 0
--
chemical-structure: Cc1cccc(Cn2ccn3c(=O)cc(N4CCOCC4)nc23)c1
%Inh / %: 9
--
chemical-structure: O=C1NC(=O)C(N2CCc3ccccc32)=C1c1cccc(Cl)c1
%Inh / %: 0
--
chemical-structure: Cc1ccc(C(=O)NCC(N)=O)cc1-n1c(C)cc(OCc2ccc(F)cc2F)c(Br)c1=O
%Inh / %: 0

What value of measured %Inh is listed for "Cl.Oc1cccc(Nc2ccnc3cc(-c4ccncc4)ccc23)c1" ?
0

---

# Tested on: TAOK3
# condition-info: concentration: 1 μM, replicates: in singlicate; n = 1
measured-quantity: %Inh
Param answer (str): number followed by unit.

chemical-structure: Cc1cccc(-c2nc(-c3ccc(S(C)(=O)=O)cc3)sc2-c2ccncc2)c1
%Inh: 0%
//
chemical-structure: Cn1cc(-c2ccc3c(c2)CCN3C(=O)Cc2ccccc2Cl)c2c(N)ncnc21
%Inh: 47%

What value of measured %Inh is listed for "NS(=O)(=O)CCc1cccc(Nc2nccc(-c3c(-c4cccc(NC(=O)c5c(F)cccc5F)c4)nn4ccccc34)n2)c1" ?
88%

What value of measured %Inh is listed for "Fc1ccc(-c2ncn(CCCN3CCOCC3)c2-c2cccnc2)cc1" ?
0%

What value of measured %Inh is listed for "CCc1ccnc(/C=C/c2n[nH]c3cc(Sc4ccccc4C(=O)NC)ccc23)c1" ?
0%

Entry source: paper PMC5540273
